// provenance: paper PMC9804084

Assay: In vivo microdialysis pharmacokinetics of LVFX without transporter inhibitors
Design: species or system rat
Conditions: rat, blood, iv, 50 mg/kg, blood; Group 1: vehicle solution of Tariquidar/Ko143 + LVFX 50 mg/kg; mean ± SD, n=3

compound: C[C@H]1COc2c(N3CCN(C)CC3)c(F)cc3c(=O)c(C(=O)O)cn1c23 [LVFX, Levofloxacin]
Cmax [ng/mL]: 10400

---

System: Organic anion transporters (OATs)
Experiment: In vivo microdialysis pharmacokinetics of LVFX with OATs inhibitor probenecid
Design: species or system rat
Details: rat, CSF (lateral ventricle microdialysate, unbound), intravenous, with Probenecid 50 mg/kg i.p.; CSF; PRO group, Probenecid 50 mg/kg i.p. + LVFX 50 mg/kg; N=5

compound: C[C@H]1COc2c(N3CCN(C)CC3)c(F)cc3c(=O)c(C(=O)O)cn1c23 [LVFX, Levofloxacin]
Tmax [min]: 15
